Sourced from patent US20120045393A1

Each entry below carries its recorded Kd.
- target.under.test: LHRH receptor (LHRH binding sites) on EFO-27 human ovarian cancer cells (human)
- experiment.description: saturation binding to EFO-27 cells, single-site fit
Non-standard residues stand in square brackets, D forms with d. *: point of attachment. pGlu = O=C1CC[C@@H](C(=O)O)N1; azaGly = NNC(=O)O; 125I = [125I]*

[
  {
    "binder": "[pGlu]HWSH[dR]WY(125I)P[azaGly]-NH2 [[Darg^6, ^125I-Tyr^8, azaGly^10]-LHRH-II]",
    "unit.info": "nM",
    "Kd": 1290
  },
  {
    "binder": "XHWSHXWXPX (177Lu held by the N-terminal DO3A10CM: 177Lu-DO3A10CM-Dnal2-His-Trp-Ser-His-Darg-Trp-Bpa4-Pro-azaGly-NH2) [^177Lu-BRU-2666]",
    "unit.info": "nM",
    "Kd": 920
  }
]
